measured_on: GlmU (UniProt A7ZTU1)
Sequence (A7ZTU1 whole entry, looked up): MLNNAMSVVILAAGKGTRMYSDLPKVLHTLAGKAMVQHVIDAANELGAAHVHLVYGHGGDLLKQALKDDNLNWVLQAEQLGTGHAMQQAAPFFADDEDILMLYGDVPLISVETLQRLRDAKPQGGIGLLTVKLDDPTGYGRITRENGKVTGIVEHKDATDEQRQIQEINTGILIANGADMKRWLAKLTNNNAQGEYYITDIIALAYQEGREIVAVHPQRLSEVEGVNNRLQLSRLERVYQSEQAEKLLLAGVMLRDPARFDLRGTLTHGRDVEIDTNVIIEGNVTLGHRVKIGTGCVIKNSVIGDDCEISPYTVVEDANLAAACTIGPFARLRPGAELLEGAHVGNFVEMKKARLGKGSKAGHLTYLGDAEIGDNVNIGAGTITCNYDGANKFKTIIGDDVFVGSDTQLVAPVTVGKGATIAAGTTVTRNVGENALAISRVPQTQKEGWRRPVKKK
test_description: relative enzymatic activity vs untreated control (fraction); higher = less inhibition
experimental_setup: 100 µM; incubation time: 2 h at 37 C
measured_parameter: relative enzymatic activity
# print the numeric value only

Some solved entries appear below for comparison.
compound=CC(C)(O/N=C(\C(=O)N[C@@H]1C(=O)N2C(C(=O)O)=C(C[N+]3(CCNC(=O)c4ccc(O)c(O)c4Cl)CCCC3)CS[C@H]12)c1csc(N)n1)C(=O)O measured_parameter="relative enzymatic activity" assay_result=0.92
compound=O=C1NCCN1c1ncc([N+](=O)[O-])s1 measured_parameter="relative enzymatic activity" assay_result=0.982
compound=CCn1nc(C(=O)O)c(=O)c2cc3c(cc21)OCO3 measured_parameter="relative enzymatic activity" assay_result=0.99
compound=NC[C@H]1O[C@H](O[C@H]2[C@H](O)[C@@H](O[C@H]3O[C@H](CO)[C@@H](O)[C@H](N)[C@H]3O)[C@H](N)C[C@@H]2N)[C@H](N)[C@@H](O)[C@@H]1O measured_parameter="relative enzymatic activity" assay_result=0.992
compound="CN(C)C1C(O)=C(C(N)=O)C(=O)C2(O)C(O)=C3C(=O)c4c(O)cccc4C(C)(O)C3C(O)C12.Cl (configuration not stated)" measured_parameter="relative enzymatic activity" assay_result=1.02
compound=CN(C)CCOC(c1ccccc1)c1ccccc1.Cn1c(=O)c2[nH]c(Cl)nc2n(C)c1=O measured_parameter="relative enzymatic activity" assay_result=0.939
compound=CN(C)c1ccc(O)c2c1C[C@H]1C[C@H]3[C@H](N(C)C)C(=O)C(C(N)=O)=C(O)[C@@]3(O)C(=O)[C@H]1C2=O measured_parameter="relative enzymatic activity" assay_result=0.995
compound=CON=C(C(=O)N[C@@H]1C(=O)N2C(C(=O)OCOC(=O)C(C)(C)C)=C(C=Cc3scnc3C)CS[C@H]12)c1csc(N)n1 measured_parameter="relative enzymatic activity" assay_result=0.838

Inquiry: Look up relative enzymatic activity: NCCONC(=O)[C@@H]1CC[C@@H]2CN1C(=O)N2OS(=O)(=O)O
Reply text: 1.02

Inquiry: Look up relative enzymatic activity: CC1C(NC(=O)C(=NOC(C)(C)C(=O)O)c2csc(N)n2)C(=O)N1S(=O)(=O)O (configuration not stated)
Reply text: 0.903

Inquiry: Look up relative enzymatic activity: COC1C=COC2(C)Oc3c(C)c(O)c4c(O)c(c(C=NN5CCN(C6CCCC6)CC5)c(O)c4c3C2=O)NC(=O)C(C)=CC=CC(C)C(O)C(C)C(O)C(C)C(OC(C)=O)C1C (configuration not stated)
Reply text: 0.259

Inquiry: Look up relative enzymatic activity: O=C(O)c1cn(C2CC2)c2cc(N3CCNCC3)c(F)cc2c1=O
Reply text: 1.09

Inquiry: Look up relative enzymatic activity: Cl.Cl.N=C(NCCCCCCNC(=N)NC(=N)Nc1ccc(Cl)cc1)NC(=N)Nc1ccc(Cl)cc1
Reply text: 0.902

Inquiry: Look up relative enzymatic activity: CN[C@@H]1[C@H](O)[C@H](NC)[C@H]2O[C@@]3(O)C(=O)C[C@@H](C)O[C@H]3O[C@@H]2[C@H]1O
Reply text: 1

* * *

measured_on: DNA polymerase (UniProt P10443)
Sequence (P10443 whole entry): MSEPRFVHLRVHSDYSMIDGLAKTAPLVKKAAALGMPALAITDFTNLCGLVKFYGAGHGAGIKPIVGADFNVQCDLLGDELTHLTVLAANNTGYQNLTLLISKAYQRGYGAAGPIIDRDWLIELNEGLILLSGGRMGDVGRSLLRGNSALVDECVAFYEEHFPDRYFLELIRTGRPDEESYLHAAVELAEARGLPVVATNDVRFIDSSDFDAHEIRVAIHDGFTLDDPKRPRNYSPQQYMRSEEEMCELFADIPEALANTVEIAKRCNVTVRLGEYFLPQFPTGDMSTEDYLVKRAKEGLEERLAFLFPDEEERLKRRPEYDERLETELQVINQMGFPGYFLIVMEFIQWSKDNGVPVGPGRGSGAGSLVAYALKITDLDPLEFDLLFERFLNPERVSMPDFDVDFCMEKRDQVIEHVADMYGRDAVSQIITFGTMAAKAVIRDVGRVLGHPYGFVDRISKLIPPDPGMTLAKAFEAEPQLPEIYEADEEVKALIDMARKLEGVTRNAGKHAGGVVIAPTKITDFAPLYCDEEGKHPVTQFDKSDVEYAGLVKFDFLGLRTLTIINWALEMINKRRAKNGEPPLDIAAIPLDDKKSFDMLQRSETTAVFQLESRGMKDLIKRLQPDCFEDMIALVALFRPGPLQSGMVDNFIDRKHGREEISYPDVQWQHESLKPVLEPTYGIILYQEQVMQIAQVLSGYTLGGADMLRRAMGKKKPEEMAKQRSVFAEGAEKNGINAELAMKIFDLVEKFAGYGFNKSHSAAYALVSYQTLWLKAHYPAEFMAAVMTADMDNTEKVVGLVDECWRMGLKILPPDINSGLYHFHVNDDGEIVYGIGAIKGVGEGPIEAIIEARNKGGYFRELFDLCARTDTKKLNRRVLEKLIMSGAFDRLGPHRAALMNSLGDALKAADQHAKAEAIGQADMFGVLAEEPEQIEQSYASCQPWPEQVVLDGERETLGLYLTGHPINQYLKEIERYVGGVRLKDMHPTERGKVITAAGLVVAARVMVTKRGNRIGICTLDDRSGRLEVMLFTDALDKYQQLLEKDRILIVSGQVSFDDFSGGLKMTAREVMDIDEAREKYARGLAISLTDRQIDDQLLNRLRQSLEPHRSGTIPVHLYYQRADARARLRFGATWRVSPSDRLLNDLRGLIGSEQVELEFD
test_description: relative enzymatic activity vs untreated control (fraction); higher = less inhibition
experimental_setup: 100 µM; incubation time: 2 h at 37 C
measured_parameter: relative enzymatic activity
# print the numeric value only

Some solved entries appear below for comparison.
compound=Oc1c(Cl)cc(Cl)c2cccnc12 assay_result=1.11
compound=CN(C)CCC=C1c2ccccc2COc2ccc(CC(=O)O)cc21.Cl assay_result=1.08
compound="Nc1ncn(C2OC(CO)C(O)C2O)c(=O)n1 (stereo unspecified)" assay_result=1.27
compound=O=c1[nH]c(=O)n([C@H]2C[C@H](O)[C@@H](CO)O2)cc1F assay_result=1.15
compound="CNC1C(O)C(NC)C2OC3(O)C(=O)CC(C)OC3OC2C1O.Cl.Cl (stereo unspecified)" assay_result=1.35
compound=CN(C)CCOC(c1ccccc1)c1ccccc1.Cn1c(=O)c2[nH]c(Cl)nc2n(C)c1=O assay_result=1.32
compound=CC(C)(C)CC(C)(C)c1ccc(OCCOCC[N+](C)(C)Cc2ccccc2)cc1.[Cl-] assay_result=0.4
compound="CCC=C(C(=O)NC1C(=O)N2C(C(=O)OCOC(=O)C(C)(C)C)=C(COC(N)=O)CSC12)c1csc(N)n1.Cl (stereo unspecified)" assay_result=1.17
compound=COC(=O)N/N=C/c1ccc([N+](=O)[O-])o1 assay_result=0.516
compound=COC(=O)N/N=C/c1c[n+]([O-])c2ccccc2[n+]1[O-] assay_result=1.16

Inquiry: Look up relative enzymatic activity: CN1CCN(c2c(F)cc3c(=O)c(C(=O)O)cn4c3c2SCC4)CC1
Reply text: 1.21

Inquiry: Look up relative enzymatic activity: NCC[C@H](O)C(=O)N[C@@H]1C[C@H](N)[C@@H](O[C@H]2O[C@H](CN)[C@@H](O)[C@H](O)[C@H]2O)[C@H](O)[C@H]1O[C@H]1O[C@H](CO)[C@@H](O)[C@H](N)[C@H]1O
Reply text: 0.863

Inquiry: Look up relative enzymatic activity: CO/N=C(\C(=O)N[C@@H]1C(=O)N2C(C(=O)O)=C(C[N+]3(C)CCCC3)CS[C@H]12)c1csc(N)n1
Reply text: 1.12

Inquiry: Look up relative enzymatic activity: COC1=C(N)C(=O)c2nc(-c3nc(C(=O)O)c(C)c(-c4ccc(OC)c(OC)c4O)c3N)ccc2C1=O
Reply text: 1.03

Inquiry: Look up relative enzymatic activity: CON=C(C(=O)NC1C(=O)N2C(C(=O)[O-])=C(COC(N)=O)CSC12)c1ccco1.[Na+] (stereo unspecified)
Reply text: 1.12

Inquiry: Look up relative enzymatic activity: CN[C@@H]1[C@H](O)[C@H](NC)[C@H]2O[C@@]3(O)C(=O)C[C@@H](C)O[C@H]3O[C@@H]2[C@H]1O
Reply text: 1.09

* * *

Tested on: RNA polymerase
test_description: relative enzymatic activity vs untreated control (fraction); higher = less inhibition
experimental_setup: 100 µM; incubation time: 2 h at 37 C
relative enzymatic activity listing for selected compounds.
# print the numeric value only

Some solved entries appear below for comparison.
compound=Cc1c(N)nc([C@H](CC(N)=O)NC[C@H](N)C(N)=O)nc1C(=O)N[C@H](C(=O)N[C@H](C)[C@@H](O)[C@H](C)C(=O)N[C@H](C(=O)NCCc1nc(-c2nc(C(=O)NCCCNCCCCN)cs2)cs1)[C@@H](C)O)[C@@H](O[C@@H]1O[C@@H](CO)[C@@H](O)[C@H](O)[C@@H]1O[C@@H]1O[C@H](CO)[C@@H](O)[C@H](OC(N)=O)[C@@H]1O)c1c[nH]cn1 measured_on="RNA polymerase" measured_parameter="relative enzymatic activity" assay_result=0.75
compound=C=CC1=C(C(=O)O)N2C(=O)[C@@H](NC(=O)/C(=N\O)c3csc(N)n3)[C@H]2SC1 measured_on="RNA polymerase" measured_parameter="relative enzymatic activity" assay_result=0.894
compound="CC1COc2c(N3CCN(C)CC3)c(F)cc3c(=O)c(C(=O)O)cn1c23 (stereo unspecified)" measured_on="RNA polymerase" measured_parameter="relative enzymatic activity" assay_result=1.16

Inquiry: GET /values?readout=relative enzymatic activity&system=RNA polymerase&item= CCN1CCN(C(=O)NC(C(=O)NC2C(=O)N3C2SC(C)(C)C3C(=O)[O-])c2ccccc2)C(=O)C1=O.[Na+] (stereo unspecified)
Reply text: 0.916

Inquiry: GET /values?readout=relative enzymatic activity&system=RNA polymerase&item= NC(=O)N/N=C/c1ccc([N+](=O)[O-])o1
Reply text: 0.734

Inquiry: GET /values?readout=relative enzymatic activity&system=RNA polymerase&item= NC[C@H]1O[C@H](O[C@H]2[C@H](O)[C@@H](O[C@H]3O[C@H](CO)[C@@H](O)[C@H](N)[C@H]3O)[C@H](N)C[C@@H]2N)[C@H](N)[C@@H](O)[C@@H]1O
Reply text: 0.781

* * *

measured_on: DNA ligase (UniProt B1XA82)
Sequence (B1XA82 whole entry): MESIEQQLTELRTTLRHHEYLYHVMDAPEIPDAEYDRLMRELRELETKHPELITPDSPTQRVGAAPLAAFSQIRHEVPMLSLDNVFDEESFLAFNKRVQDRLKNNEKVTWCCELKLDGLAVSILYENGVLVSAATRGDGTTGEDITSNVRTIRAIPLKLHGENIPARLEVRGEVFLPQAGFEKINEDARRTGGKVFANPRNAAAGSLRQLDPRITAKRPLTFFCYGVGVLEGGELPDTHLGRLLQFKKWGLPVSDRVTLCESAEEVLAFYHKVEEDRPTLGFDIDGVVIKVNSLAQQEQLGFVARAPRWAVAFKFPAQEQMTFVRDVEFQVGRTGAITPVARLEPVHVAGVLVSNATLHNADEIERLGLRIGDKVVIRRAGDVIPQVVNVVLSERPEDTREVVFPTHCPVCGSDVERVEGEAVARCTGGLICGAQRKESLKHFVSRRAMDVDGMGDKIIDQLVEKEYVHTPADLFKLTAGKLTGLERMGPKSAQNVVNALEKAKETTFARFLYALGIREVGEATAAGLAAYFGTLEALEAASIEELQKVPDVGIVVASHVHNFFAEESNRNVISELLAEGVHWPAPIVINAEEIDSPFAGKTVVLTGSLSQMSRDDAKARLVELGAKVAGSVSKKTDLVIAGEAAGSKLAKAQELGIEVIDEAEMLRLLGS
test_description: relative enzymatic activity vs untreated control (fraction); higher = less inhibition
experimental_setup: 100 µM; incubation time: 2 h at 37 C
Class Condition met: relative enzymatic activity at least 1. Class Condition not met: relative enzymatic activity below 1.

Use the examples below as a reference point.
compound=N[C@H]1CCN(c2nc3c(cc2F)c(=O)c(C(=O)O)cn3-c2ccc(F)cc2F)C1 measured_on="DNA ligase (UniProt B1XA82)" assigned_class="Condition not met"
compound=CN[C@@H]1[C@H](O)[C@H](NC)[C@H]2O[C@@]3(O)C(=O)C[C@@H](C)O[C@H]3O[C@@H]2[C@H]1O measured_on="DNA ligase (UniProt B1XA82)" assigned_class="Condition met"
compound=O=C1OC(=O)[C@H]2[C@@H]1[C@H]1CC[C@H]2O1 measured_on="DNA ligase (UniProt B1XA82)" assigned_class="Condition met"
compound="COC1C=COC2(C)Oc3c(C)c(O)c4c(O)c(c5c(nc6cc(C)ccn65)c4c3C2=O)NC(=O)C(C)=CC=CC(C)C(O)C(C)C(O)C(C)C(OC(C)=O)C1C (configuration not stated)" measured_on="DNA ligase (UniProt B1XA82)" assigned_class="Condition met"

Inquiry: Does relative enzymatic activity meet or surpass 1 for O=[N+]([O-])c1ccc(O)c2ncccc12 ?
Reply text: Condition not met

Inquiry: Does relative enzymatic activity meet or surpass 1 for CC(C)(ON=C(C(=O)NC1C(=O)N2C(C(=O)[O-])=C(C[n+]3ccccc3)CSC12)c1csc(N)n1)C(=O)O (configuration not stated) ?
Reply text: Condition met

Inquiry: Does relative enzymatic activity meet or surpass 1 for CCC=C(C(=O)NC1C(=O)N2C(C(=O)OCOC(=O)C(C)(C)C)=C(COC(N)=O)CSC12)c1csc(N)n1.Cl (configuration not stated) ?
Reply text: Condition not met

Inquiry: Does relative enzymatic activity meet or surpass 1 for Nc1nc(C(=CCC(=O)O)C(=O)NC2C(=O)N3C(C(=O)O)=CCSC23)cs1 (configuration not stated) ?
Reply text: Condition met
